# Experimental Target: PARP7 (Homo sapiens (Human), UniProt Q7Z3E1)
# Sequence (Q7Z3E1 whole entry): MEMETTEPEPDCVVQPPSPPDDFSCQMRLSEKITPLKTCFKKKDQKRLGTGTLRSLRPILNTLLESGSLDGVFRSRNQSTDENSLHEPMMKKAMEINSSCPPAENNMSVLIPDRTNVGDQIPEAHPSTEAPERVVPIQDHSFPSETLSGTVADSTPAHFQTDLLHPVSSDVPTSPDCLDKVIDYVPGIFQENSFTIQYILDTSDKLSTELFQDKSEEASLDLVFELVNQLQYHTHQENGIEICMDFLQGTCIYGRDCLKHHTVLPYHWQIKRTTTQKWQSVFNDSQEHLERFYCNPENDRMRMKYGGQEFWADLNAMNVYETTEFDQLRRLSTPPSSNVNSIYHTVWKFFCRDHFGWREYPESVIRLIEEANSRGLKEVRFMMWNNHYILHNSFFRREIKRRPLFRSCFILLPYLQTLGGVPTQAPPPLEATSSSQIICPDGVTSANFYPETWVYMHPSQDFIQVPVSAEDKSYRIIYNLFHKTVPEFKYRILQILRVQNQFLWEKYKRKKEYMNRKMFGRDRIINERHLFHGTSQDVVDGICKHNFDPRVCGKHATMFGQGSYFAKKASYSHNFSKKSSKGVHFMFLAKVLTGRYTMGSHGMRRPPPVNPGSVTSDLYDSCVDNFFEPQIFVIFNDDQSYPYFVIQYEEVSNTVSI
# Run Description: Enzymatic assay for inhibition of PARP7: TR-FRET displacement of biotinylated Probe A from the TIPARP active site
# Conditions Used: Table A-1
# Method: 20 nL of a dose response curve of each test compound was spotted in black 384-well polystyrene proxiplates (Perkin Elmer) using a Mosquito (TTP Labtech). […] Reactions were incubated at 25° C. for an additional 30 min, then read on an Envision platereader equipped with a LANCE/DELFIA top mirror (Perkin Elmer) using excitation of 320 nm and emission of 615 nm and 665 nM with a 90 μs delay. […]
pIC50: −log10 of the molar value.
Assay Readout: pIC50

Compound: CC(=O)N1CCN(c2cccc3c2CN(c2cn[nH]c(=O)c2C(F)(F)F)C3)CC1 [Example 294]
pIC50: > 7.00

Compound: N#Cc1ccc(N2CCN(C(=O)/C=C/COC[C@@H]3CCCN3c3cn[nH]c(=O)c3C(F)(F)F)CC2)nc1 (single isomer, unassigned) [Example 96 Isomer B]
pIC50: > 7.00

Compound: O=c1[nH]ncc(N2Cc3ccccc3C2CO)c1Cl (centres unmarked) [Example 191]
pIC50: ≤ 6.00

Compound: Cc1cnc(N2CCN(C(=O)c3cccc(OC[C@@H]4CCCN4c4cn[nH]c(=O)c4C(F)(F)F)c3)CC2)nc1 [Example 447]
pIC50: > 7.00

Compound: CN(C)CCOc1cccc2c1CN(c1cn[nH]c(=O)c1Cl)C2 [Example 166]
pIC50: ≤ 6.00

## Task Which pIC50 value belongs to O=c1[nH]ncc(N2Cc3ccccc3C2)c1C(F)(F)F [Example 160] ?
## Result > 7.00

## Task Dear colleague, I am looking for the recorded pIC50 of the following compound: O=c1[nH]ncc(N2Cc3ccc(OCCO)cc3C2)c1Cl [Example 157]
## Result 6.00 to 7.00

## Task Give the measured pIC50 of O=C(C[C@@H]1CC[C@@H](COc2cn[nH]c(=O)c2C(F)(F)F)O1)N1CCN(c2ncc(Cl)cn2)CC1 (single isomer, unassigned) [Example 565 Isomer A] .
## Result 6.00 to 7.00
